# test_system: Tyrosine-protein kinase ABL2 (Homo sapiens, UniProt P42684); also: in the data inactive means no Kd found up to 30 µM
# Sequence (P42684 whole entry): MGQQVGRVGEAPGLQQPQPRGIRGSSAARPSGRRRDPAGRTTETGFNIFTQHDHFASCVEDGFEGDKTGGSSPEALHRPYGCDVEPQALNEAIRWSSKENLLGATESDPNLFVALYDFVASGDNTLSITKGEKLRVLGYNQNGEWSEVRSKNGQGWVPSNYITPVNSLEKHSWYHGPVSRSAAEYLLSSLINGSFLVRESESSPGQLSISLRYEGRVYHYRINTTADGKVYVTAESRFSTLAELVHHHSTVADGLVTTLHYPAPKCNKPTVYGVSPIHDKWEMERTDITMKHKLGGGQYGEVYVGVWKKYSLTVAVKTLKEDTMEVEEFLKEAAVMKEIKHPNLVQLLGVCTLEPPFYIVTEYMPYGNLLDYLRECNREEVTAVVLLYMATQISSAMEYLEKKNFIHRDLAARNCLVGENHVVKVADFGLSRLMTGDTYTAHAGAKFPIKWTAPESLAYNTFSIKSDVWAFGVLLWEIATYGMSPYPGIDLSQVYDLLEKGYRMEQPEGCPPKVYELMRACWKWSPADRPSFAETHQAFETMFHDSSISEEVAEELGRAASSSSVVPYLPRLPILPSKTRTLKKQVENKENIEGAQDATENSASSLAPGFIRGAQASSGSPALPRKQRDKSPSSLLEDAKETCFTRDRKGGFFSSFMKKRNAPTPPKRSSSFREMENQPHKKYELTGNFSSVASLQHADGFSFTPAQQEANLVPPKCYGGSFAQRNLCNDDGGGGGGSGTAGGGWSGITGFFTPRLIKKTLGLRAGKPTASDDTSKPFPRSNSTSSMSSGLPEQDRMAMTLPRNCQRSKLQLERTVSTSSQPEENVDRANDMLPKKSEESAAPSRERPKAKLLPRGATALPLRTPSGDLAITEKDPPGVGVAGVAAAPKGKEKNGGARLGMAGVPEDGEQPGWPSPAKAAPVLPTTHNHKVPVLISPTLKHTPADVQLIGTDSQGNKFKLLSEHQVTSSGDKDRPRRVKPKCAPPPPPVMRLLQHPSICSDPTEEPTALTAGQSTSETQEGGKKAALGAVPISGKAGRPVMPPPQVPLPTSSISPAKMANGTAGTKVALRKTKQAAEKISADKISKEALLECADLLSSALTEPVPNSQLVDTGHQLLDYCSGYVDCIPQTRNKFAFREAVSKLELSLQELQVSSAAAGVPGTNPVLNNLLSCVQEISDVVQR
Calls of active or inactive are those of the source.
Return exactly one item of y (active), n (inactive)

I'd appreciate the recorded outcome for CC[C@H](Nc1ncnc2[nH]cnc12)c1nc2cccc(F)c2c(=O)n1-c1ccccc1 [IDELALISIB] from this test.
n

I'd appreciate the recorded outcome for C[C@@H]1CN(Cc2ccc(F)cc2)[C@@H](C)CN1C(=O)c1cc2c(C(=O)C(=O)N(C)C)cn(C)c2cc1Cl [TALMAPIMOD] from this test.
n

I'd appreciate the recorded outcome for Cc1nc(N)sc1-c1ccnc(Nc2ccc(N3CCOCC3)cc2)n1 [CYC-116] from this test.
n

I'd appreciate the recorded outcome for CNS(=O)(=O)Nc1nccc(Cc2c(C)c3ccc(Oc4ncccn4)cc3oc2=O)c1F [AVUTOMETINIB] from this test.
n

I'd appreciate the recorded outcome for `Cc1cc(-c2cc(O)ccc2Cl)cc2nnc(Nc3ccc(OCCN4CCCC4)cc3)nc12` from this test.
y

I'd appreciate the recorded outcome for CC(=O)Nc1cccc(-n2c(=O)n(C3CC3)c(=O)c3c(Nc4ccc(I)cc4F)n(C)c(=O)c(C)c32)c1 [TRAMETINIB] from this test.
n

I'd appreciate the recorded outcome for CC(C)Nc1cc(-c2c[nH]c(C(=O)N[C@H](CO)c3cccc(Cl)c3)c2)c(Cl)cn1 [ULIXERTINIB] from this test.
n

* * *

# test_system: Ribosomal protein S6 kinase beta-1 (Homo sapiens, UniProt P23443); also: in the data inactive means no Kd found up to 30 µM
# Sequence (P23443 whole entry): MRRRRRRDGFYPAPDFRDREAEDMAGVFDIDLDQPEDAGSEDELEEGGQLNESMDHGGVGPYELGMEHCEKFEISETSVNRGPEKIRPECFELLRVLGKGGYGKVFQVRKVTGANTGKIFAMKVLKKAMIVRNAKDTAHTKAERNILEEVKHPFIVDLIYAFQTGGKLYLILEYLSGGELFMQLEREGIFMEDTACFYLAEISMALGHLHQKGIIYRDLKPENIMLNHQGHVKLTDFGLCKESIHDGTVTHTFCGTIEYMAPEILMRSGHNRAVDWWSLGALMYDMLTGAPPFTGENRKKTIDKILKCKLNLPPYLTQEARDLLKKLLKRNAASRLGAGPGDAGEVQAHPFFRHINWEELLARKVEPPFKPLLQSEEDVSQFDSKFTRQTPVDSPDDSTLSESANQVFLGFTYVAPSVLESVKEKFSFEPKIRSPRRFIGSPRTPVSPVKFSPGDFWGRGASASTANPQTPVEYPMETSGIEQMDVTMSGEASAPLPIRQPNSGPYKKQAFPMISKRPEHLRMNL
Active and inactive are the calls of the source.
Return exactly one item of active, inactive

I'd appreciate the recorded outcome for `CC[C@@H]1C(=O)N(C)c2cnc(Nc3ccc(C(=O)N[C@H]4CC[C@H](N5CCN(CC6CC6)CC5)CC4)cc3OC)nc2N1C(C)C` from this test.
inactive

I'd appreciate the recorded outcome for `CNC(=O)c1cc(Oc2ccc(NC(=O)Nc3ccc(Cl)c(C(F)(F)F)c3)c(F)c2)ccn1` from this test.
inactive

I'd appreciate the recorded outcome for `CNS(=O)(=O)Nc1nccc(Cc2c(C)c3ccc(Oc4ncccn4)cc3oc2=O)c1F` from this test.
inactive

I'd appreciate the recorded outcome for `CC(=O)Nc1cccc(-n2c(=O)n(C3CC3)c(=O)c3c(Nc4ccc(I)cc4F)n(C)c(=O)c(C)c32)c1` from this test.
inactive

I'd appreciate the recorded outcome for `O=c1sn(-c2cccc3ccccc23)c(=O)n1Cc1ccccc1` from this test.
inactive

I'd appreciate the recorded outcome for `Cn1cc(-c2ccc(F)c(C(F)(F)F)c2)nc1C1CCN(c2ncnc3[nH]ncc23)CC1` from this test.
active

I'd appreciate the recorded outcome for `Cn1cc(-c2ccc3nnc(C(F)(F)c4ccc5ncccc5c4)n3n2)cn1` from this test.
inactive

I'd appreciate the recorded outcome for Cc1cc2c(F)c(Oc3ncnn4cc(OC[C@@H](C)OC(=O)[C@H](C)N)c(C)c34)ccc2[nH]1 [BRIVANIB ALANINATE] from this test.
inactive

I'd appreciate the recorded outcome for `CN(C)C(=O)c1cc2cnc(Nc3ccc(N4CCNCC4)cn3)nc2n1C1CCCC1` from this test.
inactive

* * *

For each entry below, report its Kd value.
# test_system: Uncharacterized aarF domain-containing protein kinase 5 (Homo sapiens, UniProt Q3MIX3); also: in the data inactive means no Kd found up to 30 µM
# Sequence (Q3MIX3 whole entry, the tested form may be a part): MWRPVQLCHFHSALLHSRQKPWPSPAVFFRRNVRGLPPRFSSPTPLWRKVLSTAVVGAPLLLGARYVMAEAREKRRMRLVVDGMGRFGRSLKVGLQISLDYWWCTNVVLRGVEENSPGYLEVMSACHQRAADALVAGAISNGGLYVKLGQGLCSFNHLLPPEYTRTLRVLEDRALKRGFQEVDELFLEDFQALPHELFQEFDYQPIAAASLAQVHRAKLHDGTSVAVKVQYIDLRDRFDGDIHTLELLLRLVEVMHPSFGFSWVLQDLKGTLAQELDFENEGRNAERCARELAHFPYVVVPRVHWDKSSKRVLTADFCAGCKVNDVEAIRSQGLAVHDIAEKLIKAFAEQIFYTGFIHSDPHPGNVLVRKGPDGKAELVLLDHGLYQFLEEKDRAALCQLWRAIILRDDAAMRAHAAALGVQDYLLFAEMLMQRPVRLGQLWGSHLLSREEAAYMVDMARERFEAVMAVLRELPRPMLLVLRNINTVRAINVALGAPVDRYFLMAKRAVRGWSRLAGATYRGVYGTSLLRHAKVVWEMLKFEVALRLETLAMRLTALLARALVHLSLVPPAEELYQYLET
Active and inactive are the calls of the source.

Given the entry `CN1CCC(COc2cnc(-c3cccc(Cn4nc(-c5cccc(C#N)c5)ccc4=O)c3)nc2)CC1` , report its measured Kd.
> 30 µM (inactive)

Given the entry `COc1cc2nccc(Oc3ccc(NC(=O)NC4CC4)c(Cl)c3)c2cc1C(N)=O` , report its measured Kd.
> 30 µM (inactive)

Given the entry `COC(=O)N[C@@H](C)CNc1nccc(-c2cn(C(C)C)nc2-c2cc(Cl)cc(NS(C)(=O)=O)c2F)n1` , report its measured Kd.
> 30 µM (inactive)

Given the entry `Cc1cc([C@@H](C)Nc2ccccc2C(=O)O)c2nc(N3CCOCC3)cc(=O)n2c1` , report its measured Kd.
> 30 µM (inactive)

Given the entry `C[C@@H]1CN(Cc2ccc(F)cc2)[C@@H](C)CN1C(=O)c1cc2c(C(=O)C(=O)N(C)C)cn(C)c2cc1Cl` , report its measured Kd.
> 30 µM (inactive)

Given the entry `N[C@@H]1CCCN(c2c(/C=C3\SC(=O)NC3=O)cccc2-c2ccccc2)C1` , report its measured Kd.
> 30 µM (inactive)

Given the entry `CCS(=O)(=O)N1CC(CC#N)(n2cc(-c3ncnc4[nH]ccc34)cn2)C1` , report its measured Kd.
> 30 µM (inactive)

Given the entry `CNS(=O)(=O)Nc1nccc(Cc2c(C)c3ccc(Oc4ncccn4)cc3oc2=O)c1F` , report its measured Kd.
> 30 µM (inactive)

* * *

# test_system: Receptor-interacting serine/threonine-protein kinase 2 (Homo sapiens, UniProt O43353); also: in the data inactive means no Kd found up to 30 µM
# Sequence (O43353 whole entry): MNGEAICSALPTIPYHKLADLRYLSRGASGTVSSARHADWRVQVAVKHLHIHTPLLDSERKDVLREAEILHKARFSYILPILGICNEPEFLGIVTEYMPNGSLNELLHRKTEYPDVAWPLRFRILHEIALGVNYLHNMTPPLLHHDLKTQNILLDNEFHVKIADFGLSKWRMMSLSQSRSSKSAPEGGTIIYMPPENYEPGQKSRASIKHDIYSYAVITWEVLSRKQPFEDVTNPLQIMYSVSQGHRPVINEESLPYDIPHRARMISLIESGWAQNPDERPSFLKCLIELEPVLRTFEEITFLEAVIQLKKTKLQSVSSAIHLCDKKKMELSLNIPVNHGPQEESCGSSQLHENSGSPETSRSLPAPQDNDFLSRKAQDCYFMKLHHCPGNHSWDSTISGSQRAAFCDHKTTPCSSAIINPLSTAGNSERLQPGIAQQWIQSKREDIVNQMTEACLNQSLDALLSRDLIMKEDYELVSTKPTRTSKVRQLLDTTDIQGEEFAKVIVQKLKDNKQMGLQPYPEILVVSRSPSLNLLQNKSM
Calls of active or inactive are those of the source.
Return exactly one item of active, inactive

I'd appreciate the recorded outcome for OCCn1cc(-c2cnc3nnn(Cc4ccc5ncccc5c4)c3n2)cn1 [PF-04217903] from this test.
inactive

I'd appreciate the recorded outcome for COc1cc(N2CCC(N3CCN(C)CC3)CC2)ccc1Nc1ncnc(Nc2ccccc2S(=O)(=O)C(C)C)n1 [ASP-3026] from this test.
inactive

I'd appreciate the recorded outcome for O=C1NC(=O)/C(=C/c2ccc3nccc(-c4ccncc4)c3c2)S1 [GSK-1059615] from this test.
inactive

I'd appreciate the recorded outcome for O=C(Nc1ccc(-c2ccnc(Nc3ccc(N4CCOCC4)cc3)n2)cc1)C1CCCN1 (stereo not drawn) [XL-019] from this test.
inactive

I'd appreciate the recorded outcome for CNC(=O)CN1CCC(Oc2cc3c(Nc4cccc(Cl)c4F)ncnc3cc2OC)CC1 [SAPITINIB] from this test.
active

I'd appreciate the recorded outcome for `Cc1ccc(S(=O)(=O)Nc2nc3ccccc3nc2Nc2ccc3nsnc3c2)cc1` from this test.
inactive

I'd appreciate the recorded outcome for Cc1cc(Nc2cc(N3CCN(C)CC3)nc(/C=C/c3ccccc3)n2)n[nH]1 [ENMD-2076] from this test.
inactive

I'd appreciate the recorded outcome for CN1CCC(CNc2ccc3ncc(-c4cccc(OC(F)(F)F)c4)n3n2)CC1 [SGI-1776] from this test.
inactive

I'd appreciate the recorded outcome for CC(=O)Nc1cccc(-n2c(=O)n(C3CC3)c(=O)c3c(Nc4ccc(I)cc4F)n(C)c(=O)c(C)c32)c1 [TRAMETINIB] from this test.
inactive

I'd appreciate the recorded outcome for C=CC(=O)N1CCC(Oc2cc3c(Nc4ccc(Cl)c(Cl)c4F)ncnc3cc2OC)CC1 [POZIOTINIB] from this test.
active

I'd appreciate the recorded outcome for `CN1CC[C@@H](c2c(O)cc(O)c3c(=O)cc(-c4ccccc4Cl)oc23)[C@@H]1CO` from this test.
inactive

I'd appreciate the recorded outcome for `N[C@@H]1CCCN(c2c(/C=C3\SC(=O)NC3=O)cccc2-c2ccccc2)C1` from this test.
inactive

I'd appreciate the recorded outcome for Cn1ncc(Cl)c1-c1cc(C(=O)N[C@H](CN)Cc2cccc(F)c2)sc1Cl [AFURESERTIB] from this test.
inactive

I'd appreciate the recorded outcome for O=C(c1ccc(F)c(F)c1Nc1ccc(I)cc1F)N1CC(O)([C@@H]2CCCCN2)C1 [COBIMETINIB] from this test.
inactive

I'd appreciate the recorded outcome for O=c1sn(-c2cccc3ccccc23)c(=O)n1Cc1ccccc1 [TIDEGLUSIB] from this test.
inactive

I'd appreciate the recorded outcome for COCCNCc1ccc(-c2cc3nccc(Oc4ccc(NC(=S)NC(=O)Cc5ccc(F)cc5)cc4F)c3s2)nc1 [GLESATINIB] from this test.
inactive

I'd appreciate the recorded outcome for C[C@@H](Nc1cc(F)cc(F)c1)c1cc(C(=O)N(C)C)cc2c(=O)cc(N3CCOCC3)oc12 [AZD-8186] from this test.
inactive

I'd appreciate the recorded outcome for Cn1cc(-c2ccc(F)c(C(F)(F)F)c2)nc1C1CCN(c2ncnc3[nH]ncc23)CC1 [LY-2584702] from this test.
inactive

I'd appreciate the recorded outcome for Cc1c(F)cc(C(=O)NC2CC2)cc1-c1ccc(C(=O)NCC(C)(C)C)cn1 [LOSMAPIMOD] from this test.
inactive

I'd appreciate the recorded outcome for COC(=O)N[C@@H](C)CNc1nccc(-c2cn(C(C)C)nc2-c2cc(Cl)cc(NS(C)(=O)=O)c2F)n1 [ENCORAFENIB] from this test.
active

I'd appreciate the recorded outcome for CCn1c(=O)c(-c2cc[nH]n2)cc2c(C)nc(N)nc21 [VOXTALISIB] from this test.
inactive

I'd appreciate the recorded outcome for CCS(=O)(=O)N1CC(CC#N)(n2cc(-c3ncnc4[nH]ccc34)cn2)C1 [BARICITINIB] from this test.
inactive

I'd appreciate the recorded outcome for COc1ccc(-c2ccc3c(N4CCOC[C@@H]4C)nc(N4CCOC[C@@H]4C)nc3n2)cc1CO [AZD-8055] from this test.
inactive

I'd appreciate the recorded outcome for COc1cc2nccc(Oc3ccc(NC(=O)NC4CC4)c(Cl)c3)c2cc1C(N)=O [LENVATINIB] from this test.
active

I'd appreciate the recorded outcome for COc1cc(OC)c(/C=C/S(=O)(=O)Cc2ccc(OC)c(NCC(=O)O)c2)c(OC)c1 [RIGOSERTIB] from this test.
inactive

I'd appreciate the recorded outcome for CCCS(=O)(=O)Nc1ccc(F)c(C(=O)c2c[nH]c3ncc(-c4ccc(Cl)cc4)cc23)c1F [VEMURAFENIB] from this test.
active

I'd appreciate the recorded outcome for C[C@@H](c1ccc2nccn2c1)n1nnc2ncc(-c3cnn(C)c3)nc21 [SAVOLITINIB] from this test.
inactive

I'd appreciate the recorded outcome for CCN1CCN(Cc2ccc(-c3cc4c(N[C@H](C)c5ccccc5)ncnc4[nH]3)cc2)CC1 [AEE-788] from this test.
inactive

I'd appreciate the recorded outcome for Cc1ccc(-n2nc(C(C)(C)C)cc2NC(=O)NCc2cc(F)ccc2Oc2ccc3c(cnn3CCO)c2)cc1 [PEXMETINIB] from this test.
inactive

I'd appreciate the recorded outcome for O=C(O)[C@]1(Cc2cccc(Nc3nccs3)n2)CC[C@@H](Oc2cccc(Cl)c2F)CC1 [MK-5108] from this test.
inactive

I'd appreciate the recorded outcome for C[C@@H]1CN(Cc2ccc(F)cc2)[C@@H](C)CN1C(=O)c1cc2c(C(=O)C(=O)N(C)C)cn(C)c2cc1Cl [TALMAPIMOD] from this test.
inactive

I'd appreciate the recorded outcome for CN1N=C(N)c2cn([C@@H]3O[C@H](COP(=O)(O)O)[C@@H](O)[C@H]3O)c3ncnc1c23 [TRICIRIBINE PHOSPHATE] from this test.
inactive

I'd appreciate the recorded outcome for Cc1cc2c(F)c(Oc3ncnn4cc(OC[C@@H](C)OC(=O)[C@H](C)N)c(C)c34)ccc2[nH]1 [BRIVANIB ALANINATE] from this test.
inactive
